All values here come from paper PMC5540273.

# Test system: MEK3
# Construct: gene MAP2K3
# conditionsUsed: concentration: 1 μM,replicates: in singlicate; n = 1;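 further: KINOMEscan kinase panel screen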
%Inh for assorted compounds
The answer is to be given in %; state only the numeric part.

Worked set:
>>> print(df.to_string())
                                   compound  valueunit  recordednumber
0    O=C(Nc1ccccc1)c1cccc(Oc2ccc3nccn3n2)c1          %              13
1  COC(=O)c1cccc(NC(=O)NC2CCN(c3ccnc(Nc4cc(OC)c(OC)c(OC)c4)n3)C2)c1 (stereo not drawn)          %               0
2  CSc1nccc(-c2c(-c3ccc(F)cc3)ncn2CCCN2CCOCC2)n1.Cl          %              33
3  Cn1ccc2ncnc(Oc3ccc(NC(=O)Nc4cc(C(C)(C)C)on4)c(Cl)c3)c21          %              15
4  Cc1n[nH]c2cc(Nc3ccnc(Nc4cccc(CN5CCOCC5)c4)n3)ccc12          %              11
5  OCCn1cc(-c2cnc3nnn(Cc4ccc5ncccc5c4)c3n2)cn1          %               0

Per the reported MEK3 data, CC(C(=O)NC1CCN(c2ccnc(Nc3ccc(F)cc3)n2)C1)c1ccc(Cl)cc1 (stereo not drawn) has %Inh of 0

Value sought: %Inh, system MEK3, item "O=C(Nc1cccc(C(F)(F)F)c1)c1cccc(Oc2ccc3nccn3n2)c1" . Result: 6

The compound "Nc1nccc(-c2ccc3c(N)n[nH]c3c2)n1" , tested on MEK3, showed %Inh of 0

Bench note, MEK3: COc1cccc(CNC(=O)NC2CCN(c3ccnc(Nc4cc(OC)c(OC)c(OC)c4)n3)C2)c1 (stereo not drawn) , %Inh reads 15

Tested on MEK3: "O=C(Nc1ccc(Oc2ccc3nc(NC(=O)C4CC4)cn3n2)c(F)c1)c1cccn(-c2ccccc2)c1=O" . Observed %Inh: 0

"Cc1ccc(Nc2ccnc(Nc3ccc4c(c3)CS(=O)(=O)C4)n2)cc1O.Cl" on MEK3 gives %Inh = 92

Noted %Inh for "COc1cc2c(Nc3ccc(NC(=O)c4ccccc4)cc3)ncnc2cc1OCCCN1CCOCC1" , tested on MEK3: 0

Short answer on MEK3 for "Cc1ccc2c(-c3ccnc(Nc4ccc(C(F)(F)F)cc4)n3)cnn2n1" , %Inh: 90.7

Observed %Inh, MEK3, CCNCC(Cc1ccccc1)NC(=O)c1cc(Br)c(-c2ccnc3[nH]ccc23)s1.Cl.Cl (stereo not drawn) : 89

Field %Inh (system: MEK3) for entry CS(=O)c1ccc(-c2coc3ccc(-c4n[nH]c(=O)o4)cc23)cc1 (stereo not drawn) = 25

Measured %Inh for this entry "CC(=O)Nc1ccc(-c2cc3ncnc(SCC(=O)O)c3s2)cc1" on MEK3: 6

Item "Cn1ccc2ncnc(Oc3ccc(NC(=O)Nc4cccc(C(F)(F)F)c4)c(Cl)c3)c21" was tested on MEK3; the reported %Inh is 0

Let me check: "CS(=O)(=O)c1cccc(CNc2nc(Nc3ccc4c(c3)[C@@H]3C[C@@H]4CNC3=O)ncc2C(F)(F)F)c1" , system MEK3, measured %Inh is 75

====

Form field: %Inh (one value per entry).
# Test system: PAK3
# conditionsUsed: concentration: 1 μM,replicates: in singlicate; n = 1
Remember to follow the number with its unit.

>>> print(df.to_string())
                                   compound  systemundertest  result
0  O=C(Nc1cccc(Oc2ccc3nccn3n2)c1)Nc1cccc(C(F)(F)F)c1             PAK3      0%
1  NC(=O)Nc1sc(-c2ccc(F)cc2)cc1C(N)=O [GW789449]             PAK3     24%
2  Cc1ccc(C(=O)Nc2ccc(Oc3ccc4nc(NC(=O)C5CC5)cn4c3)c(F)c2)c(=O)n1-c1ccccc1             PAK3     12%
3  NC(=O)c1ccc(-c2cc3ncnc(SCC(=O)O)c3s2)cc1             PAK3      0%
4  C[C@@H]1CNc2c(sc3ccc4nc(-c5ccncc5)ccc4c23)C(=O)N1             PAK3      9%

The value of %Inh recorded for O=c1[nH]cc(-c2ccc(O)cc2)c2sc(-c3ccncc3)cc12 [GSK1033723] when tested on PAK3 reads 11%

%Inh on PAK3 for CC(C)c1nc(-c2cccc(NS(=O)(=O)c3ccccc3)c2)c(-c2ccnc(Nc3ccc4c(c3)CN(C)CC4)n2)s1 [GSK1649598] is 88%

For the compound "CC(=O)Nc1nc2cnc(Nc3cc(NC(=O)c4cccc(CC(C)(C)C#N)c4)ccc3C)nc2s1" , the measured %Inh on PAK3 was 28%

Given the compound "O=C(Nc1ccccc1)c1cccc(Oc2ccc3nccn3n2)c1" and test system PAK3, the measured %Inh is 5%
